Assign IC50 to each entry below.
Assay System: PI3Kγ (p110γ) Recombinant Human Protein (Homo sapiens (Human))
Test Name: PI3K-γ Scintillation Proximity Assay
Type: biochemical
Condition Details: read-out: PI3Kγ IC50
Counter-ions that a name gives are not always drawn.

Study these solved cases before continuing.
{"columns": ["Molecule", "IC50"],
 "data": [
  ["Cc1ccc(S(=O)(=O)NC(C)(C)C(N)=O)cc1-c1cnc2c(N)ncnn12 [Example 190, trifluoroacetate]", "< 0.1 µM"],
  ["Cc1ccc(S(C)(=O)=O)cc1-c1cnc2c(N)nc(C(=O)NC3CCCN(CCO)C3)cn12 (racemic)", "0.5 to 2 µM"],
  ["Cc1ccc(S(=O)(=O)NC23CC(CN(C4CCC4)C2)C3)cc1-c1cnc2c(N)ncnn12 [Example 525, trifluoroacetate]", "0.1 to 0.5 µM"]
]}

# return IC50 for each item in the list
1. Cc1ccc(S(=O)(=O)NC23CC(F)(C2)C3)cc1-c1cnc2c(N)ncnn12 [Example 98, trifluoroacetate salt]
2. Cc1ccc(S(=O)(=O)NC23CC(Cn4ccnc4)(C2)C3)cc1-c1cnc2c(N)ncnn12 [Example 112, trifluoroacetate salt]
3. Cc1ccc(S(=O)(=O)N[C@H]2CC[C@H](CC#N)OC2)cc1-c1cnc2c(N)nc(C(=O)NC3CCC3)cn12 [Example 450, trifluoroacetate salt]

["< 0.1 µM", "< 0.1 µM", "< 0.1 µM"]

====

Task for the reader: assign each of the following compounds its reported IC50.
Assay System: PI3Kδ (p110δ/p85α) Recombinant Human Protein (Homo sapiens (Human))
Test Name: PI3Kδ Scintillation Proximity Assay
Where a name gives a salt, the structure may show the parent alone.

{"columns": ["Compound", "Assay System", "IC50"],
 "data": [
  ["CCCN(CC1CC1)S(=O)(=O)c1ccc(C)c(-c2cnc3c(N)ncnn23)c1", "PI3Kδ (p110δ/p85α) Recombinant Human Protein (Homo sapiens (Human))", "500 to 2000 nM"]
]}

Provide IC50 values for the following items, in order.
1. Cc1ccc(S(=O)(=O)N[C@H]2CC[C@H](O)CC2)cc1-c1cn2cc(-c3ccc(C#N)cc3)nc(N)c2n1
2. CNC(=O)c1cn2c(-c3cc(S(=O)(=O)NCC4CC(F)(F)C4)ccc3C)cnc2c(N)n1 [Example 445, trifluoroacetate salt]

< 100 nM
100 to 500 nM

====

Assay System: PI3Kδ (p110δ/p85α) Recombinant Human Protein (Homo sapiens (Human), UniProt O00329)
Sequence (O00329 whole entry): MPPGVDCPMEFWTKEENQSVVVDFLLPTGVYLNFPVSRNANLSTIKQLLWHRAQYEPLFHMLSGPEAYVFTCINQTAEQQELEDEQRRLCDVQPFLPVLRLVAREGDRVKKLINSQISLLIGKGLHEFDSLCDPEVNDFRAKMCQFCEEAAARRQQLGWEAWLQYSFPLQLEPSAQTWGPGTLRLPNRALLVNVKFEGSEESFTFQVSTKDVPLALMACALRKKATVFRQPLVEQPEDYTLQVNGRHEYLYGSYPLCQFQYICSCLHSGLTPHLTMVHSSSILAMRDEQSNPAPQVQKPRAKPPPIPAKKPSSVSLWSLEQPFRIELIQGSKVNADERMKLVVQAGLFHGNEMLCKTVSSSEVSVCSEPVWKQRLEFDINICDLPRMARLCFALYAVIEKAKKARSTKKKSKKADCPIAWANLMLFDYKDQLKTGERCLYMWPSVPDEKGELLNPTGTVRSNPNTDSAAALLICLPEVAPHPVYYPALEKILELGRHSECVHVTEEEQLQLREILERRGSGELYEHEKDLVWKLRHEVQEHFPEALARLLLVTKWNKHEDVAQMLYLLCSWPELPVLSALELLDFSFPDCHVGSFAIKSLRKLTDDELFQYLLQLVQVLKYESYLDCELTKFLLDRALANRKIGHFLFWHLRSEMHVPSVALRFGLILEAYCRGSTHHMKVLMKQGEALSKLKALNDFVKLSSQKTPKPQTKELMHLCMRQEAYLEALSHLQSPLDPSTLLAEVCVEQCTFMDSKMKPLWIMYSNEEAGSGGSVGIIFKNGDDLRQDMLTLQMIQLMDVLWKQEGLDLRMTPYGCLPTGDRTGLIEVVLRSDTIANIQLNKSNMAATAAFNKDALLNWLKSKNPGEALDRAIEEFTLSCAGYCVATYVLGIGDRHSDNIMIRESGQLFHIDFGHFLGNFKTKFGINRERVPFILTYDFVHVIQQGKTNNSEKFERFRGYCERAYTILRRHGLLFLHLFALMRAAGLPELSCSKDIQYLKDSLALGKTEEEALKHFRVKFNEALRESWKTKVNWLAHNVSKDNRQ
Sequence (P27986 whole entry partner): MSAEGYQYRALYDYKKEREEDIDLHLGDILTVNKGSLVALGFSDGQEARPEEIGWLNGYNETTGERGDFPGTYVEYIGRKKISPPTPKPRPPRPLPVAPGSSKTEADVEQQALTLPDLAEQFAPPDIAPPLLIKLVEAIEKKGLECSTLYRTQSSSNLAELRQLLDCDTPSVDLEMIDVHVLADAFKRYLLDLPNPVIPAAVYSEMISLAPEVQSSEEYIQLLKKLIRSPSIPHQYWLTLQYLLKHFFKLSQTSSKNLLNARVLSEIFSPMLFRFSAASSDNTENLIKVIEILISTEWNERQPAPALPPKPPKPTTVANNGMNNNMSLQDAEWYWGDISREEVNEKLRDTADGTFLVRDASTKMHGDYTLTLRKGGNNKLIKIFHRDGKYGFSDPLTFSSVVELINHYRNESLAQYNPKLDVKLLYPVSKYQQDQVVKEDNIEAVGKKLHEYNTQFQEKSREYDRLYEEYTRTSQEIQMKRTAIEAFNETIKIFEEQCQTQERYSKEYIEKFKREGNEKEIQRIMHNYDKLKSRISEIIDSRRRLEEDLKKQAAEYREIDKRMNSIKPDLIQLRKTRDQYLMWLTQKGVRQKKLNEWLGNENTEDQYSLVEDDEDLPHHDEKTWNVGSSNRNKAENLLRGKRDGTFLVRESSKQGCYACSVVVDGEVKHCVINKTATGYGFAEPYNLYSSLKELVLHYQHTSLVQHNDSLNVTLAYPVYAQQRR
Test Name: PI3Kδ Scintillation Proximity Assay
pIC50: −log10 of the molar value. Where a name gives a salt, the structure may show the parent alone.
Result Type: pIC50

{"columns": ["Compound", "Assay System", "pIC50"],
 "data": [
  ["Cc1ccc(S(=O)(=O)N2CCC[C@@H](N)C2)cc1-c1cnc2c(N)nc(C(F)(F)F)cn12 [Example 464, tris(2,2,2-trifluoroacetate)]", "PI3Kδ (p110δ/p85α) Recombinant Human Protein (Homo sapiens (Human), UniProt O00329)", "> 7.00"],
  ["Cc1ccc(S(=O)(=O)NC23CC(CO)(C2)C3)cc1-c1cnc2c(N)nc(C(F)(F)F)cn12 [Example 274, trifluoroacetate salt]", "PI3Kδ (p110δ/p85α) Recombinant Human Protein (Homo sapiens (Human), UniProt O00329)", "6.30 to 7.00"],
  ["Nc1nc(C(F)(F)F)cn2c(-c3ccc(Cl)c(S(=O)(=O)NC45CCC(CO)(C4)C5)c3)cnc12 [Example 399, trifluoroacetate salt]", "PI3Kδ (p110δ/p85α) Recombinant Human Protein (Homo sapiens (Human), UniProt O00329)", "> 7.00"],
  ["Cc1ccc(S(=O)(=O)NC23CCC(CN4CCOCC4)(CC2)OC3)cc1-c1cnc2c(N)ncnn12 [Example 434, trifluoroacetate salt]", "PI3Kδ (p110δ/p85α) Recombinant Human Protein (Homo sapiens (Human), UniProt O00329)", "6.30 to 7.00"],
  ["COc1ccc(S(=O)(=O)NC23CCC(C#N)(C2)C3)cc1-c1cnc2c(N)ncnn12 [Example 372, trifluoroacetate salt]", "PI3Kδ (p110δ/p85α) Recombinant Human Protein (Homo sapiens (Human), UniProt O00329)", "5.70 to 6.30"]
]}

Consider now this further compound.
Recorded pIC50 for Cc1ccc(S(=O)(=O)NC23CCC(CO)(CC2)OC3)cc1-c1cnc2c(N)ncnn12 [Example 433, trifluoroacetate salt] , please?
6.30 to 7.00

====

Assay System: PI3Kγ (p110γ) Recombinant Human Protein (Homo sapiens (Human))
Test Name: PI3K-γ Scintillation Proximity Assay
Type: biochemical
Condition Details: read-out: PI3Kγ IC50
Structures can show the parent of a compound that is named as a salt.
Result Type: IC50

// below: answered molecules
{"columns": ["Molecule", "Result"],
 "data": [
  ["Cc1ccc(S(=O)(=O)N2CCC3(CCCO3)C2)cc1-c1cnc2c(N)ncnn12 (stereo not drawn) [Example 202]", "0.1 to 0.5 µM"],
  ["Cc1ccc(S(=O)(=O)N2CCC3(CCCOC3)C2)cc1-c1cnc2c(N)ncnn12 (stereo not drawn) [Example 203]", "< 0.1 µM"],
  ["Cc1nc(N)c2ncc(-c3cc(S(=O)(=O)NC45CCC(CO)(C4)C5)ccc3C)n2n1 [Example 268, trifluoroacetate salt]", "< 0.1 µM"]
]}

I need IC50 for every entry listed below, if you could help.
1. CC(C)(O)CNS(=O)(=O)c1ccc(C(F)(F)F)c(-c2cnc3c(N)nc(C(F)(F)F)cn23)c1 [Example 407]
2. CNC(=O)c1cn2c(-c3cc(S(=O)(=O)NC4CC(F)(F)C4)ccc3C)cnc2c(N)n1 [Example 447, trifluoroacetate salt]
3. Cc1ccc(S(=O)(=O)N[C@H]2C[C@H](CO)C2)cc1-c1cnc2c(N)ncnn12 [Example 60]
4. COCC1(N(C)S(=O)(=O)c2ccc(C)c(-c3cnc4c(N)ncnn34)c2)CC1 [Example 177]

0.5 to 2 µM
< 0.1 µM
< 0.1 µM
< 0.1 µM

Batch request: IC50 per item, same order as input.
1. Cc1ccc(S(=O)(=O)NC2(C)CNC2)cc1-c1cnc2c(N)nc(C(F)(F)F)nn12 [Example 531, trifluoroacetate]
2. Cc1ccc(S(=O)(=O)NC23COC(CO)(C2)C3)cc1-c1cnc2c(N)nc(C(F)(F)F)nn12 [Example 427, trifluoroacetate salt]
3. Cc1ccc(S(=O)(=O)N2CC(N3CCOCC3)C2)cc1-c1cnc2c(N)ncnn12 [Example 146]
4. CO[C@@H]1CN(S(=O)(=O)c2ccc(C)c(-c3cnc4c(N)ncnn34)c2)C[C@H]1F [Example 151]

< 0.1 µM
< 0.1 µM
< 0.1 µM
< 0.1 µM

Dear reader, for each entry below, please note its IC50.
1. Cc1ccc(S(=O)(=O)N2CC3(COC3)C2)cc1-c1cnc2c(N)ncnn12 [Example 143]
2. Cc1ccc(S(=O)(=O)NC23CC(c4nccn4C)(C2)C3)cc1-c1cnc2c(N)nc(C(F)(F)F)cn12 [Example 294, trifluoroacetate salt]
3. Cc1ccc(S(=O)(=O)N2CCNC[C@@H]2CO)cc1-c1cnc2c(N)ncnn12 [Example 166]
4. Cc1ccc(S(=O)(=O)NC23CC(F)(C2)C3)cc1-c1cnc2c(N)nc(C(F)(F)F)nn12 [Example 333, trifluoroacetate salt]
5. Cc1ccc(S(=O)(=O)N[C@H]2CC[C@H](O)CC2)cc1-c1cnc2c(N)cc(-c3ccnn3C)cn12 [Example 10, bis(trifluoroacetate)]
6. Cc1ccc(S(=O)(=O)N2CCCCC23CC3)cc1-c1cnc2c(N)ncnn12 [Example 149]
7. Cc1ccc(S(=O)(=O)NC2(C#N)CC2)cc1-c1cnc2c(N)ncnn12 [Example 189]
8. Cc1cc(C)c(S(=O)(=O)NCC(C)(C)O)cc1-c1cnc2c(N)nccn12 [Example 361]

< 0.1 µM
< 0.1 µM
< 0.1 µM
< 0.1 µM
< 0.1 µM
< 0.1 µM
< 0.1 µM
0.1 to 0.5 µM

====

For each of the molecules below, state its IC50.
Assay System: PI3Kγ (p110γ) Recombinant Human Protein (Homo sapiens (Human), UniProt P48736)
Sequence (P48736 whole entry): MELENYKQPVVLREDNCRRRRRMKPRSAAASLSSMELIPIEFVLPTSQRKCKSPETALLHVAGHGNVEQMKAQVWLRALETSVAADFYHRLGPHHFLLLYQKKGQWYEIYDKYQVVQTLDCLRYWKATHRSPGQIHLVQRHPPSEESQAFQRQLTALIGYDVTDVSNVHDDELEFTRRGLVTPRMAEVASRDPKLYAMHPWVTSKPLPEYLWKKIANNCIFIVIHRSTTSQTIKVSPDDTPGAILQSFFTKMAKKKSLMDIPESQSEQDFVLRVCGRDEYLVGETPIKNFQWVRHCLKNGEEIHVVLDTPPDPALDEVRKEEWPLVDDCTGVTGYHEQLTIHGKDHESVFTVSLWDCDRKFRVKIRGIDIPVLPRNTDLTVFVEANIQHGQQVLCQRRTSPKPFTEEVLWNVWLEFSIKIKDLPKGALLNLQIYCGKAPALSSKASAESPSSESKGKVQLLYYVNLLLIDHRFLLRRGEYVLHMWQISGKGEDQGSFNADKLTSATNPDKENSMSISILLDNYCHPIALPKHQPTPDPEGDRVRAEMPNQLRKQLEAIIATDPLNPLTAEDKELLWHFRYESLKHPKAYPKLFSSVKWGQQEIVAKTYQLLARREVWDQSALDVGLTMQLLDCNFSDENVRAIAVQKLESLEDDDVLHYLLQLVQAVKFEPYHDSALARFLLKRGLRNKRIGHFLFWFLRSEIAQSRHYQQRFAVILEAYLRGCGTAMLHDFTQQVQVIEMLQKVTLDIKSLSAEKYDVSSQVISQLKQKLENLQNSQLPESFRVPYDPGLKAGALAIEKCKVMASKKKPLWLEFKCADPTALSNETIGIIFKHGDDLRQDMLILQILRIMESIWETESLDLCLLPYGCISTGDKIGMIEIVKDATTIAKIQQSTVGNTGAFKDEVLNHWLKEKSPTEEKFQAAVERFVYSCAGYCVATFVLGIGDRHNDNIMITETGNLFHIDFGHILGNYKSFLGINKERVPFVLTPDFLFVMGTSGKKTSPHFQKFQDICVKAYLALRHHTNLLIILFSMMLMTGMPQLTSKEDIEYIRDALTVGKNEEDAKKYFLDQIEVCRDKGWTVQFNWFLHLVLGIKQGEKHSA
Test Name: PI3K-γ Scintillation Proximity Assay
Format: biochemical
Condition Details: read-out: PI3Kγ IC50
Counter-ions that a name gives are not always drawn.

{"columns": ["Molecule", "Result"],
 "data": [
  ["Cc1ccc(S(=O)(=O)N2CCC(O)CC2)cc1-c1cnc2c(N)ncnn12", "100 to 500 nM"],
  ["Cc1ccncc1NS(=O)(=O)c1ccc(C)c(-c2cnc3c(N)ncnn23)c1", "< 100 nM"],
  ["Cc1ccc(S(=O)(=O)N2CC3(CC(O)C3)C2)cc1-c1cnc2c(N)ncnn12 [Example 145, TFA]", "< 100 nM"]
]}

Consider the molecule shown here: Cc1ccc(S(=O)(=O)NCC2(CO)CCOCC2)cc1-c1cnc2c(N)ncnn12 What is its recorded IC50?
100 to 500 nM
